These entries and their values trace back to paper PMC5540273.

- System: CLK1
- cond: concentration: 1 μM, replicates: in singlicate; n = 1;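 also: KINOMEscan kinase panel screen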
Property: %Inh; scope: individual molecules
parameter: %Inh (%)

Oc1cc(Nc2ccnc3cc(I)ccc23)ccc1F | 8
O=C(Nc1cccc(-c2nn3ccccc3c2-c2ccnc(Nc3cccc(C(F)(F)F)c3)n2)c1)c1c(F)cccc1F | 23
Cl.c1ccc(-c2ccc3c(Nc4ccc5[nH]ncc5c4)ccnc3c2)nc1 | 48
O=c1[nH]cc(-c2ccc(N3CCOCC3)cc2)c2sc(-c3cn[nH]c3)cc12 | 90
C[C@@H]1CC[C@@H](C(=O)Nc2ccccc2)CN1c1cc(-c2ccc3c(N)n[nH]c3c2)nc(N)n1 | 14
Nc1n[nH]c2cnc(-c3ccccc3)cc12 | 69

====

- Tested on: ERK2
- Construct: gene MAPK1
- cond: concentration: 1 μM, replicates: in singlicate; n = 1
parameter: %Inh (%)

COc1ccc(-c2coc3ccc(-c4nnc(SCc5ccc(OC)c(C(F)(F)F)c5)o4)cc23)cc1 | 24
COCCOCCOc1cc2ncc3c4ccc(C#N)cc4[nH]c3c2cc1OC | 6
CC(=O)N1CCN(c2ccc(Nc3nccc(-c4sc(C(C)C)nc4-c4cccc(NS(=O)(=O)c5cccc(Cl)c5)c4)n3)cn2)CC1 | 98.8
Nc1ncc(-c2cccnc2)c2scc(-c3ccc4c(c3)CCN4C(=O)Cc3ccccc3)c12 | 11
COc1ccc(Nc2nccc(N3CCC(NC(=O)Nc4cccc(OC)c4)C3)n2)cc1 (centres unmarked) | 0
NCCCC(NC(=O)c1cc(Br)c(-c2ccnc3[nH]ccc23)s1)c1ccccc1.O=C(O)C(F)(F)F.O=C(O)C(F)(F)F (centres unmarked) | 22
CC(C)(C)c1ccc2nccc(Nc3cccc(O)c3)c2c1 | 0
COc1ccc(Nc2nccc(NCCNC(=O)c3cc4ccccc4s3)n2)cc1 | 0
Cc1ccc(C(=O)N2CC[C@@H](O)C2)cc1-n1c(C)cc(OCc2ccc(F)cc2F)c(Br)c1=O | 0
Cl.Cl.NCC(C(=O)Nc1cc(Br)c(-c2ccnc3[nH]ccc23)s1)c1ccccc1 (centres unmarked) | 0
CN(C)S(=O)(=O)c1cc(-c2ccc3nccc(-c4cccc(S(N)(=O)=O)c4)c3c2)cnc1N | 0

====

Property: %Inh; scope: individual compounds
- Test system: RSK2(Kin.Dom.2-C-terminal)
- Construct: gene RPS6KA3
- cond: concentration: 1 μM, replicates: in singlicate; n = 1
parameter: %Inh (%)

COc1ccc(Nc2nccc(N3CCC(NC(=O)Nc4cccc(OC)c4)C3)n2)cc1 (stereo not shown) [GSK1379742] | 1
O=C(Nc1cccc(-c2nn3ccccc3c2-c2ccnc(Nc3cccc(C(F)(F)F)c3)n2)c1)c1c(F)cccc1F [GSK292658] | 5
c1ccc(-c2cnc3nccnn23)cc1 [AH20685] | 0
COc1ccc(CNC(=O)NC2CCN(c3ccnc(Nc4ccc(F)cc4)n3)CC2)cc1 [GSK1379788] | 5
Cc1cccc(NC(=O)Nc2ccc(Oc3ncnc4ccn(C)c34)cc2)c1 | 2
Clc1ccc(-c2nn3ncccc3c2-c2ccnc(Nc3ccc4c(c3)OCCO4)n2)cc1 [GW829116] | 0
COc1cc2c(cc1OCCN1CCNCC1)ncc1c3ccc(C#N)cc3[nH]c21 | 0
Cl.c1ccc(-c2ccc3c(Nc4ccc5[nH]ncc5c4)ccnc3c2)nc1 [GW440137] | 0
O=C(Nc1cccc(Oc2ccc3nc(NC(=O)C4CC4)cn3n2)c1)c1ccccc1C(F)(F)F | 55
C[C@@H](Oc1cc(-n2cnc3cc(-c4ccnc(NCCS(C)(=O)=O)c4)ccc32)sc1C(N)=O)c1ccccc1Cl [GSK907232] | 4
O=C(O)C(F)(F)F.O=C(O)C(F)(F)F.O=c1[nH]ccc2nc(N[C@@H]3CCCNC3)nc(Nc3ccc(S(=O)(=O)N4CCOCC4)cc3)c12 [GSK2177277] | 11
Cn1cc(-c2ccc3c(c2)CCN3C(=O)Cc2cccc(F)c2)c2c(N)ncnc21 [GSK2603358] | 0
CCCCc1nn2ncccc2c1-c1ccnc(Nc2ccc(N3CCN(C)CC3)cc2)n1 [GW684941] | 20
